measuredOn: human CCR8 (human, UniProt P51685 1-355)
methodNotes: cell-based or functional assay
propertyMeasured: residual hCCL1 (100 nM) Gi2 response, protocol #2, mAb 10 µg/mL (%)
A number alone suffices; assume %.

Name the recorded residual hCCL1 (100 nM) Gi2 response, protocol #2, mAb 10 µg/mL of the binder listed here: anti-CCR8 mAb 1-2 (antibody, V domains shown, Murine hybridoma mAb) VH: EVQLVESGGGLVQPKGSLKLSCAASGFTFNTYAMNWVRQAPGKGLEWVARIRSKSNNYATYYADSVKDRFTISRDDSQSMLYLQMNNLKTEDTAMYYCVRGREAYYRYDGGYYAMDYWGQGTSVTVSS VL: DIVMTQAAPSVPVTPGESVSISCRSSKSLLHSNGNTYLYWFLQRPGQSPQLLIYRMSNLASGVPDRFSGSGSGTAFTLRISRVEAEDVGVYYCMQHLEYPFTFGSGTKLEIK
19

Report residual hCCL1 (100 nM) Gi2 response, protocol #2, mAb 10 µg/mL, nothing else, for this binder: anti-CCR8 mAb 1-3 (antibody, V domains shown, Murine hybridoma mAb) VH: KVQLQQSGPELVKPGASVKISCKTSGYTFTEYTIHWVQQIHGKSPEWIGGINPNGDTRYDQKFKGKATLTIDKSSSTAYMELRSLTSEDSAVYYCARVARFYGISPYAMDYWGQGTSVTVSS VL: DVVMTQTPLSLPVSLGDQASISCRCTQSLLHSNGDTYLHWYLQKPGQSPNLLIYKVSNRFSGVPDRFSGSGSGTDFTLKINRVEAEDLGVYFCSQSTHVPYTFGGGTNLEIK
100

Identify the reported residual hCCL1 (100 nM) Gi2 response, protocol #2, mAb 10 µg/mL for the following entry. anti-CCR8 mAb 1-14 (antibody, V domains shown, Murine hybridoma mAb) VH: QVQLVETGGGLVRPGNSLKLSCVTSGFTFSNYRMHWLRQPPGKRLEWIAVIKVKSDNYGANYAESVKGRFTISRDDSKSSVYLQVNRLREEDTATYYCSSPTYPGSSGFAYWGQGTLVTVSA VL: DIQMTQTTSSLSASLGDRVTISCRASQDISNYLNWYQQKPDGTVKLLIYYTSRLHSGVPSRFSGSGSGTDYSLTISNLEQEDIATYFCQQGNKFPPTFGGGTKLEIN
48

Please give measured residual hCCL1 (100 nM) Gi2 response, protocol #2, mAb 10 µg/mL of the following entry: anti-CCR8 mAb 1-4 (antibody, V domains shown, Murine hybridoma mAb) VH: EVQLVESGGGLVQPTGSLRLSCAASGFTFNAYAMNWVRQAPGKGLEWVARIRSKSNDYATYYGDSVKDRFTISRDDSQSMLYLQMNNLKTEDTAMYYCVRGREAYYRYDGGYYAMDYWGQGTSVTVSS VL: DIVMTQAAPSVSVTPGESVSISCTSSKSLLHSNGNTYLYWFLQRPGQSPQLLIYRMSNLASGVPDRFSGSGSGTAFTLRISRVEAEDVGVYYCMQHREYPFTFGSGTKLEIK
28

State, in one line, measured residual hCCL1 (100 nM) Gi2 response, protocol #2, mAb 10 µg/mL of anti-CCR8 mAb 1-13 (antibody, V domains shown, Murine hybridoma mAb) VH: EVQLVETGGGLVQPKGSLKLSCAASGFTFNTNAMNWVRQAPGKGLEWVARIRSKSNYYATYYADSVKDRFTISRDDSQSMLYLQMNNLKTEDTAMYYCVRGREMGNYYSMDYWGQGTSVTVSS VL: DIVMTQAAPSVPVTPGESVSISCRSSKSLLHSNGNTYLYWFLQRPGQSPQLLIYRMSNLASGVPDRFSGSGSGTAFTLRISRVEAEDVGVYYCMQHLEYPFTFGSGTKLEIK
21

Provide measured residual hCCL1 (100 nM) Gi2 response, protocol #2, mAb 10 µg/mL value, entry: anti-CCR8 mAb 1-1 (antibody, V domains shown, Murine hybridoma mAb) VH: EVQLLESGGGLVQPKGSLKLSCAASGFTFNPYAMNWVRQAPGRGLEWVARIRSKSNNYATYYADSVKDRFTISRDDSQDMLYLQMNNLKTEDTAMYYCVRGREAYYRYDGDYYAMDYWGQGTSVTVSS VL: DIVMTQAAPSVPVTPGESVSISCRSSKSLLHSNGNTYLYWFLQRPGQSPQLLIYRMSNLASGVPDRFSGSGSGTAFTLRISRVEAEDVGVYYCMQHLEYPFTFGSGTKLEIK
44

State, in one line, measured residual hCCL1 (100 nM) Gi2 response, protocol #2, mAb 10 µg/mL of anti-CCR8 mAb 1-10 (antibody, V domains shown, Murine hybridoma mAb) VH: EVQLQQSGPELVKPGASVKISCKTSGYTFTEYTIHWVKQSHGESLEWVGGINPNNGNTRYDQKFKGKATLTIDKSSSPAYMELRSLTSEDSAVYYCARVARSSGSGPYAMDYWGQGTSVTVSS VL: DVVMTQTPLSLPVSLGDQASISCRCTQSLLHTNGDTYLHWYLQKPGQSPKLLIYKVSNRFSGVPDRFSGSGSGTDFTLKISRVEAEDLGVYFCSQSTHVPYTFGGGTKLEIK
28

Return residual hCCL1 (100 nM) Gi2 response, protocol #2, mAb 10 µg/mL (reported value) for this binder: anti-CCR8 mAb 1-16 (antibody, V domains shown, Murine hybridoma mAb) VH: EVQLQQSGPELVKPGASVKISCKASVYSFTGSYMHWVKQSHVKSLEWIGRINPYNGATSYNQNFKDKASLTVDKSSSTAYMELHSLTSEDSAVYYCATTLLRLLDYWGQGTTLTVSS VL: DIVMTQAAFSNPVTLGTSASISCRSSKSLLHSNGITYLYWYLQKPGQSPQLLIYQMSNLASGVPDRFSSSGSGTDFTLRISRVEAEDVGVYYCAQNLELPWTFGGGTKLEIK
84

Give reported residual hCCL1 (100 nM) Gi2 response, protocol #2, mAb 10 µg/mL value for anti-CCR8 mAb 1-7 (antibody, V domains shown, Murine hybridoma mAb) VH: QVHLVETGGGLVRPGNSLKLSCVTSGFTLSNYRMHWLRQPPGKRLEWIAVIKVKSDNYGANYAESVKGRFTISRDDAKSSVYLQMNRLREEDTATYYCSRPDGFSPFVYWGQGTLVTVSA VL: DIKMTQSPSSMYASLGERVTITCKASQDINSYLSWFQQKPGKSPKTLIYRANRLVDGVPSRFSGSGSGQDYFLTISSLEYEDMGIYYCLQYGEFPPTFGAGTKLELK
24

Fill in reported residual hCCL1 (100 nM) Gi2 response, protocol #2, mAb 10 µg/mL for this entry: anti-CCR8 mAb 1-9 (antibody, V domains shown, Murine hybridoma mAb) VH: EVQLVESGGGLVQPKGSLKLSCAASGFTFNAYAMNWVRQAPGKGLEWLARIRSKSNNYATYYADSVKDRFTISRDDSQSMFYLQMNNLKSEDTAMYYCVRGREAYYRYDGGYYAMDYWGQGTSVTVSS VL: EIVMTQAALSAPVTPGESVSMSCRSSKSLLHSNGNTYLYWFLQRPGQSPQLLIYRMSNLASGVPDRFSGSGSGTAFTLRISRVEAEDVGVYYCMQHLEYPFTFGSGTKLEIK
46

Indicate the recorded residual hCCL1 (100 nM) Gi2 response, protocol #2, mAb 10 µg/mL value for this binder: anti-CCR8 mAb 1-15 (antibody, V domains shown, Murine hybridoma mAb) VH: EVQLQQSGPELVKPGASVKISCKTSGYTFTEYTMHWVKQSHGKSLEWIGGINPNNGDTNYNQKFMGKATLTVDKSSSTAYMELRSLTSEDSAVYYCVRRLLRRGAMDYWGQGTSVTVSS VL: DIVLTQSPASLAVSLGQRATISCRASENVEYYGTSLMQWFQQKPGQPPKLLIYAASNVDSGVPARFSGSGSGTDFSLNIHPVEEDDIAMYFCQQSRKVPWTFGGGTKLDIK
95
